# System: OVCAR-3 ovarian
# Protocol description: NCI tumour cell line growth inhibition, 48 h
Give TGI for every item shown.

Enquiry: Give TGI for C=C/C(C)=C/[C@H](C)C(=O)C[C@H](O)CC1CC(=O)NC(=O)C1
Return: > 100 µM

Enquiry: Return TGI for the following compound: COc1ccc(-c2cc(C(=O)Nc3cccc(C(F)(F)F)c3)[nH]c(=S)n2)cc1
Return: > 100 µM

Enquiry: Tell me measured TGI for CC(C)(C)c1nc2c(o1)C(=Nc1ccccc1)c1ccccc1C2=O please.
Return: 6.24 µM

Enquiry: Note down TGI recorded for CCCCCCC1CCC2CCCC(C)N12 (centres undefined)
Return: > 100 µM

Enquiry: Find the measured TGI of Cc1ccc(NS(=O)(=O)c2ccc(-c3cnc(C4CC4)o3)cc2)cc1 and report it.
Return: 6.13 µM

Enquiry: Determine from records and report TGI for NC1=CN(CCCO)C2=N/C(=C\c3ccco3)C(=O)N12
Return: > 100 µM

Enquiry: Consider the compound N#Cc1[nH]c(=O)n(-c2ccc([N+](=O)[O-])cc2)c1N and give its recorded TGI.
Return: > 10 µM

Enquiry: Entry CCOC(=O)NNC(=O)NCCNC(=O)NNC(=O)OCC needs its TGI filled in; supply it.
Return: > 100 µM

Enquiry: Give the measured TGI for O=C(NO)c1ccc(C(=O)NO)cc1
Return: > 100 µM

Enquiry: Input C1=C2SSC3=CC=C(SSc4ccc(s4)SSC4=CC=C(SSC(=C1)S2)S4)S3 , output reported TGI.
Return: > 100 µM

Enquiry: Supply measured TGI of O=C1N[C@H]2c3c(Cl)sc(Cl)c3C(=O)[C@H]2O1 in your reply.
Return: 36.8 µM

Enquiry: In one line, give reported TGI of the entry COc1cc(-c2c3c(cn2S(=O)(=O)c2ccccc2)-c2nc(N)sc2CC3)cc(OC)c1OC .
Return: 6.9 µM

Enquiry: Please list TGI recorded for the compound CCCC[C@@H]1NC(=O)[C@H](CCCCN)NC(=O)[C@H](CCCNC(=N)N)NC(=O)[C@H](CC(C)C)NC(=O)[C@@H](NC(=O)[C@H](Cc2cccc(Cl)c2)NC(=O)[C@@H]2CCCN2C(=O)[C@@H](NC(C)=O)C(C)C)CCSSC[C@@H](C(=O)N[C@@H](CCCCN)C(=O)N2CCC[C@H]2C(=O)N2CCC[C@H]2C(=O)N[C@@H](CCC(=O)O)C(N)=O)NC(=O)[C@H](Cc2ccccc2)NC(=O)[C@H](CO)NC(=O)[C@H](C)NC(=O)[C@@H]2CCCN2C1=O
Return: > 50 µM

Enquiry: Please indicate TGI recorded for CO/N=C(\c1ccccc1)c1cnn(-c2ccccc2)c1N
Return: > 25 µM

Enquiry: Please report TGI for the following compound: Nc1ccccc1C#C/C=C\C#Cc1ccc(F)cc1F
Return: 21.4 µM

Enquiry: Output TGI of Cc1cc(-c2ccc(C(=O)C(Cl)(Cl)Cl)[nH]2)on1
Return: 90.1 µM

Enquiry: Give the reported TGI for this compound. COC(=O)OC[C@H]1O[C@@H](n2cc(C)c(=O)[nH]c2=O)CC1OC(=O)OC (some centres undefined)
Return: > 100 µM

Enquiry: Return reported TGI. Input compound: COC(=O)c1cnc2nc(N3CCOCC3)[nH]n2c1=O
Return: > 100 µM

Enquiry: Please report the measured TGI for O=C1CC(NC(=O)C(F)(F)F)c2c(Br)sc(N3CCC(c4ccccc4)CC3)c21 (centres undefined)
Return: 95.8 µM

* * *

# Tested on: SF-539 CNS
# Protocol description: NCI tumour cell line growth inhibition, 48 h
Assignment: determine reported GI50 for the given compounds.

Enquiry: Give recorded GI50. COc1cc(-c2c3c(cn2S(=O)(=O)c2ccccc2)-c2nc(N)sc2CC3)cc(OC)c1OC
Return: 0.548 µM

Enquiry: Specify reported GI50 for the compound shown: OCC1SC(n2cnc3cncnc32)C(O)C1O (configuration not stated)
Return: > 100 µM

Enquiry: Quickly give me recorded GI50 for COC1/C=C/O[C@@]2(C)Oc3c(C)c(O)c4c(O)c(cc(O)c4c3C2=O)NC(=O)/C(C)=C\C=C\[C@H](C)C(O)[C@@H](C)[C@@H](O)[C@@H](C)[C@H](OC(C)=O)[C@@H]1C (some centres not stated)
Return: 3.41 µM

Enquiry: Given the compound OCC(O)CC[CH2][Sn]([c]1ccccc1)([c]1ccccc1)[c]1ccccc1 (configuration not stated) , write its reported GI50.
Return: 17.2 µM

Enquiry: Tell us which GI50 value is on record for C[C@]12CC[C@H](O)CC1=CC[C@@H]1[C@@H]2CC[C@]2(C)C(=O)/C(=C/c3cccc(OCCCn4ccnc4)c3)C[C@@H]12
Return: 18.7 µM

Enquiry: Assign GI50 to the following record: O=C1Nc2ccc(Cl)cc2/C1=C\c1c(-c2ccc(F)cc2)nc2ccccn12
Return: 2.09 µM

Enquiry: // fetch GI50 given entry [Cu+2].[Cu+2].[O-]c1ccccc1C=Nc1ccccc1[O-].[O-]c1ccccc1C=Nc1ccccc1[O-]
Return: 13.2 µM

* * *

# System: NCI-H226 lung
# Protocol description: NCI tumour cell line growth inhibition, 48 h; in the data active means GI50 below about 0.43 µM; inactive means the rest
Output constraint: value belongs to 1.0 (active), 0.0 (inactive)

Enquiry: What classification did CCOc1ccc(NC(=O)Nc2cc(C(C)C)ccc2C)cc1 end up with in this test?
Return: 0.0

Enquiry: Test call, this compound: CCC(=O)Sc1ccccc1C(=O)Nc1ccc(Cl)cc1
Return: 0.0

Enquiry: Recorded test call requested for C=C1CC2CC[C@@]34C[C@@H]5O[C@@H]6C(O[C@H]7CC[C@H](CC(=O)OC8[C@@H](C)C9OC%10C[C@]%11(C[C@@H]%12O[C@@]%13(C[C@@H](C)[C@@H]%12O%11)C[C@H](C)[C@@H]%11OC%12CC(C(O)CO)OC%12C[C@@H]%11O%13)OC%10CC9O[C@H]8C[C@H]8O[C@@H](CC[C@@H]1O2)C[C@@H](C)C8=C)O[C@@H]7[C@@H]6O3)C5O4 (stereo not given in full)
Return: 1.0

Enquiry: I'd appreciate the recorded outcome for CO/N=C(\c1ccccc1)c1cnn(-c2ccccc2)c1N from this test.
Return: 0.0

Enquiry: Tell me the recorded outcome of this test for Cn1ncc2c(Nc3ccc(Br)cc3)nc(Nc3ccc(Br)cc3)nc21 .
Return: 0.0

* * *

Consider the following compounds; for each one, report its TGI.
# Tested on: SK-MEL-28 melanoma
# Protocol description: NCI tumour cell line growth inhibition, 48 h

Enquiry: Provide measured TGI value, entry: O=C(NCc1cn(Cc2cccc(Oc3ccccc3)c2)nn1)c1cccnc1Nc1ccccc1
Return: > 100 µM

Enquiry: # return recorded TGI for entry COc1c2cc(C(C)(C)C)cc1CSCc1cc(C(C)(C)C)cc(c1OC)CCCCC2
Return: > 50 µM

Enquiry: Tell me TGI reported for CCCCCCCCCCCCCCCC[N+](C)(C)Cc1ccc(C[N+](C)(C)CCCCCCCCCCCCCCCC)cc1
Return: 7.57 µM

Enquiry: Query TGI for CCCCN(CC)C(=O)C(=O)C1C(=O)Nc2ccccc2S1=O (centres undefined)
Return: > 100 µM

Enquiry: Tell me TGI reported for N#CC(c1ccc(O)cc1)N1CCN(C(C#N)c2ccc(O)cc2)CC1 (centres undefined)
Return: > 100 µM

Enquiry: Provide TGI value for the following compound: C[C@@H]1O[C@@H](O[C@H]2C[C@@H](O)[C@]3(CO)C4C(CC[C@]3(O)C2)[C@@]2(O)CC[C@H](C3=CC(=O)OC3)[C@@]2(C)C[C@H]4O)[C@H](O)[C@H](O)[C@H]1O (some centres undefined)
Return: 0.164 µM

Enquiry: Look up TGI of COc1ccc(C(CC(=O)c2ccccc2)C(C(=O)c2ccccc2)C(c2ccc(OC)cc2)C2C(=O)NC(=O)NC2=O)cc1 (centres undefined) and report it.
Return: > 100 µM

Enquiry: Indicate its recorded TGI; the compound in question is CCOC(=O)c1nc2c3c(ncn2n1)Oc1c(c(-c2ccccc2)nn1-c1ccccc1)C3c1ccc(OC)c(OC)c1 (centres undefined)
Return: > 100 µM

Enquiry: Fill in reported TGI for this entry: CC1=CC[C@@H]2[C@@H](CC[C@@]2(C)O)C(C)(C)[C@H]1CC[C@@H]1[C@@]2(C)CCC(=O)C(C)(C)O[C@@H]2CC[C@]1(C)O
Return: > 100 µM

Enquiry: Determine its reported TGI: Cc1c(Cl)ccc2c1NC(=O)C2(O)CC(=O)c1ccc(Cl)cc1Cl (centres undefined)
Return: > 50 µM

Enquiry: Look up and state reported TGI for O=c1/c(=C/c2cccc3ccccc23)sc2nc3ccccc3n12
Return: > 100 µM

Enquiry: State its TGI: CCOC(=O)C1(Cc2ccc(C)cc2)Cc2ccc(C)cc2C1=O (centres undefined)
Return: > 100 µM

Enquiry: Consider the compound O=C(NCCNCCO)N/N=C/c1cccc([N+](=O)[O-])c1 and give its recorded TGI.
Return: > 100 µM

Enquiry: Provide TGI value for the following compound: CCCCCCC1CCC2CCCC(C)N12 (centres undefined)
Return: > 100 µM

Enquiry: Please list TGI recorded for the compound CC(=O)N[C@@H](Cc1ccc(O)cn1)C(=O)NCc1cccc(F)c1
Return: > 100 µM

Enquiry: Note TGI for the compound shown: Cc1ccc(NS(=O)(=O)c2ccc(-c3cnc(C4CC4)o3)cc2)cc1
Return: 20.1 µM

Enquiry: Please give measured TGI of the following entry: C=C1C(=O)O[C@H]2[C@H]1CC/C(COC(=O)OCCCCCOC(=O)OC/C1=C/CC[C@@]3(C)O[C@H]3[C@H]3OC(=O)C(=C)[C@@H]3CC1)=C\CC[C@@]1(C)O[C@@H]21
Return: 0.842 µM

Enquiry: Assign TGI to the following record: O=C(Cn1ccnc1[N+](=O)[O-])N(CCO)CCO
Return: > 1250 µM

Enquiry: Determine from records and report TGI for O=C(CCN1CCCCC1CCO)Nc1ccc2c(c1)C(=O)c1ccc(NC(=O)CCN3CCCCC3CCO)cc1C2=O (centres undefined)
Return: 23.5 µM

Enquiry: Input CC1C(c2ccc(N(C)C)cc2)c2cc3c(cc2OC1N1CCCC1)OCO3 (centres undefined) , output reported TGI.
Return: > 100 µM

Enquiry: Please give the documented TGI of CN(C)CCC1(C2=CCCC2)CC/C(=C\c2ccc3c(c2)OCO3)C1=O (centres undefined)
Return: 27.4 µM

Enquiry: Give TGI for COC(=O)Cc1c([C@@H]2Nc3ccccc3[C@H]2CC(=O)OC)[nH]c2ccccc12
Return: > 100 µM

Enquiry: Give me measured TGI, please, for this compound: CS(=O)(=O)C1S(=O)(=O)OCCOS1(=O)=O
Return: > 100 µM

Enquiry: Please supply the value of reported TGI for the item COc1cc(OC)cc(N2CCC(c3c(N)nc(N)nc3Cl)CC2)c1
Return: > 100 µM

Enquiry: For the compound Cc1cc(N(CCCl)CCCl)ccc1C=Nc1cccnc1 , give its reported TGI.
Return: > 100 µM

Enquiry: Answer with the recorded TGI of O=C1Nc2ccc(Cl)cc2/C1=C\c1c(-c2ccc(F)cc2)nc2ccccn12 only.
Return: 15.3 µM

Enquiry: Recall and state the measured TGI for c1cc(-c2cscc2-c2ccsc2)cs1 .
Return: > 100 µM

Enquiry: Hello, please tell me recorded TGI for this one: O=c1[nH]cnc2c1nnn2CCCn1nnc2c(=O)[nH]cnc21
Return: > 100 µM

Enquiry: For the compound c1ccc2c(c1)O[As](O[As]1Oc3ccccc3O1)O2 , give its reported TGI.
Return: 15.1 µM

Enquiry: For Cc1cc(-c2ccc(C(=O)C(Cl)(Cl)Cl)[nH]2)on1 , write its TGI.
Return: > 100 µM

Enquiry: Note TGI for the compound shown: CCN(CC)c1ccc(NC(C(=O)c2ccccc2)c2ccccc2)cc1 (centres undefined)
Return: 3.6 µM

Enquiry: Please indicate TGI recorded for O=C(Cc1ccccc1)Oc1ccc2c(-c3ccccc3)c(C(=O)Nc3ccc(Cl)cc3)c(=O)oc2c1
Return: > 100 µM

Enquiry: Complete the entry with TGI for COc1ccc2nc3ccc(OC)cc3c(S(=O)Cc3ccc([N+](=O)[O-])cc3)c2c1 (centres undefined)
Return: 15.7 µM

Enquiry: Fill in TGI for record Cc1nc2sc(C(=O)Nc3cccc4ccccc34)c(N)c2cc1C(C)O (centres undefined)
Return: > 50 µM

Enquiry: Return value of TGI for input COC(=O)N1[C@H]2Cc3c(OC)c(C)c(OC)c(OC)c3[C@@H]1/C(=C\c1cc(OC)c(OC)c(C)c1OC)N(Cc1ccccc1)C2=O , no commentary.
Return: > 100 µM

Enquiry: Determine its reported TGI: O=S(=O)(Nc1ccc(-c2nc(-c3cccc(OCCN4CCOCC4)c3)c(-c3ccnc(Br)c3)[nH]2)cc1)c1ccccc1
Return: 9.79 µM

Enquiry: Recall and state the measured TGI for COc1ccc(CNc2cc(OC)cc(OC)c2)cc1 .
Return: > 100 µM

Enquiry: Give the value of TGI reported for the following: CCOc1ncn(-c2ccc(NC(=S)Nc3cccc(O)c3)cc2)n1
Return: > 100 µM

Enquiry: Supply TGI value. Item: COc1ccc2c(c1)Oc1nc(N)c(C#N)c(N)c1C2Sc1ccc(SC)cc1 (centres undefined)
Return: 3.15 µM
